Test system: human hepatic stellate cells LX-2
METHOD_NOTES: Anti-fibrosis activity test: inhibition of proliferation of human hepatic stellate cells LX-2 (CCK-8)
Type: cell-based
COND: Homo sapiens, 48 h, human hepatic stellate cells LX-2, CCK-8, 48 hours
MEASURED_METRIC: IC50

Per the reported human hepatic stellate cells LX-2 data, COc1cccc(COc2c3c(nc4ccccc24)-c2cccn2C3=O)c1 [Compound 610b] has IC50 of 0.05 to 5 mM

So the reported IC50 for O=C1c2c(nc3cc(C(F)(F)F)ccc3c2OCc2ccc(Cl)cc2)-c2cccn21 [Compound 544b] , on human hepatic stellate cells LX-2, turned out to be 0.05 to 5 mM

The compound CC(C)n1c2c(c(=O)c3cc(F)c(N4CCNCC4)cc31)C(=O)n1cccc1-2 [Compound 331a] , when measured on human hepatic stellate cells LX-2, yielded IC50 of 0.05 to 5 mM

The measured IC50 that O=C1c2c(n(Cc3ccc(Cl)cc3)c3cc(Cl)ccc3c2=O)-c2cccn21 [Compound 508a] showed for human hepatic stellate cells LX-2 is 0.05 to 5 mM

Measured IC50 (human hepatic stellate cells LX-2), entry C=CCOc1c2c(nc3cc(N4CCNCC4)c(F)cc13)-c1cccn1C2=O [Compound 349b] : 0.05 to 5 mM

IC50 on human hepatic stellate cells LX-2 for N#Cc1ccccc1-c1ccc(Cn2c3c(c(=O)c4ccccc42)C(=O)n2cccc2-3)cc1 [Compound 648a] is 0.05 to 5 mM

Observed IC50 on human hepatic stellate cells LX-2, entry O=C1c2c(n(Cc3ccc(Cl)cc3)c3c(F)c(N4CCNCC4)ccc3c2=O)-c2cccn21 [Compound 484a] , equals 0.05 to 5 mM

Here O=C1c2c(n(CCF)c3ccccc3c2=O)-c2cccn21 [Compound 653a] was tested on human hepatic stellate cells LX-2, and its IC50 came to 0.05 to 5 mM

# N#Cc1ccc(COc2c3c(nc4cc(N5CCNCC5)c(C#N)cc24)-c2cccn2C3=O)cc1 [Compound 641b] with human hepatic stellate cells LX-2: IC50 is 0.05 to 5 mM

Tested on human hepatic stellate cells LX-2, the item O=C1c2c(nc3ccccc3c2OCc2ccc(OC(F)(F)F)cc2)-c2cccn21 [Compound 592b] showed IC50 equal to 0.05 to 5 mM

Form: item O=C1c2c(n(Cc3cccc(Cl)c3F)c3ccccc3c2=O)-c2cccn21 [Compound 582a] ; test system human hepatic stellate cells LX-2; IC50: 0.05 to 5 mM

Item: CS(=O)(=O)CCCn1c2c(c(=O)c3ccccc31)C(=O)n1cccc1-2 [Compound 659a] | System: human hepatic stellate cells LX-2 | IC50: 0.05 to 5 mM

Measured on human hepatic stellate cells LX-2, O=C1c2c(nc3ccccc3c2OCc2ccc(-c3ccccc3)cc2)-c2cccn21 [Compound 649b] has a documented IC50 of 0.05 to 5 mM

Form field, IC50 with human hepatic stellate cells LX-2, item O=C1c2c(nc3ccc(C(F)(F)F)cc3c2O)-c2cccn21 [Compound 282b] : 0.05 to 5 mM

Record CC(C)CCn1c2c(c(=O)c3cc(F)ccc31)C(=O)n1cccc1-2 [Compound 105a] has human hepatic stellate cells LX-2 IC50 equal to 0.05 to 5 mM

Form field, IC50 with human hepatic stellate cells LX-2, item COc1cc(Cn2c3c(c(=O)c4ccccc42)C(=O)n2cccc2-3)cc(OC)c1 [Compound 580a] : 0.05 to 5 mM

Summary line: O=C1c2c(n(Cc3cccc(Cl)c3)c3cccc(Cl)c3c2=O)-c2cccn21 [Compound 478a] , human hepatic stellate cells LX-2, reported IC50 = 0.05 to 5 mM

// compound O=C1c2c(n(Cc3ccc(F)cc3)c3ccccc3c2=O)-c2cccn21 [Compound 588a] , assay human hepatic stellate cells LX-2, IC50 value: 0.05 to 5 mM

GET /values?item= CC(C)n1c2c(c(=O)c3ccccc31)C(=O)n1cccc1-2 [Compound 5a] &system= human hepatic stellate cells LX-2 returns IC50: 0.05 to 5 mM

O=C1c2c(n(Cc3cc(C(F)(F)F)cc(C(F)(F)F)c3)c3cc(N4CCNCC4)ccc3c2=O)-c2cccn21 [Compound 631a] tested on human hepatic stellate cells LX-2 gave IC50: 0.05 to 5 mM

IC50 of O=C1c2c(n(Cc3ccc(F)cc3)c3cccc(F)c3c2=O)-c2cccn21 [Compound 468a] , assay on human hepatic stellate cells LX-2, is 0.05 to 5 mM

Form: item O=C1c2c(n(Cc3cccc(F)c3)c3cccc(F)c3c2=O)-c2cccn21 [Compound 475a] ; test system human hepatic stellate cells LX-2; IC50: 0.05 to 5 mM

// returns IC50 for N#Cc1ccc2[nH]c3c(c(=O)c2c1)C(=O)n1cccc1-3 [Compound 222a] with human hepatic stellate cells LX-2; value = 0.05 to 5 mM

Form field IC50 for item O=C1c2c(nc3cccc(Cl)c3c2OCc2ccccc2F)-c2cccn21 [Compound 480b] on human hepatic stellate cells LX-2: 0.05 to 5 mM

Measured IC50 for this entry O=C1c2c(n(Cc3ccccc3Cl)c3cccc(Cl)c3c2=O)-c2cccn21 [Compound 645a] on human hepatic stellate cells LX-2: 0.05 to 5 mM

Reported human hepatic stellate cells LX-2 IC50 for item O=C1c2c(n(Cc3cccc([N+](=O)[O-])c3)c3ccccc3c2=O)-c2cccn21 [Compound 583a] was 0.05 to 5 mM

Item: O=C1c2c(nc3ccccc3c2OCc2c(F)cccc2F)-c2cccn21 [Compound 615b] | System: human hepatic stellate cells LX-2 | IC50: 0.05 to 5 mM

Field IC50 (human hepatic stellate cells LX-2), entry C=CCOc1c2c(nc3ccccc13)-c1cccn1C2=O [Compound 6b] : 0.05 to 5 mM

Reading of IC50 for N#Cc1cc2c(=O)c3c(n(Cc4ccc(C(F)(F)F)cc4)c2cc1N1CCNCC1)-c1cccn1C3=O [Compound 642a] with human hepatic stellate cells LX-2: 0.05 to 5 mM

The compound O=C1c2c(nc3c(Cl)cccc3c2O)-c2cccn21 [Compound 443b] , when measured on human hepatic stellate cells LX-2, yielded IC50 of 0.05 to 5 mM

Short answer on human hepatic stellate cells LX-2 for N#Cc1ccccc1Cn1c2c(c(=O)c3ccccc31)C(=O)n1cccc1-2 [Compound 577a] , IC50: < 0.05 mM

Test item N#Cc1c(N2CCNCC2)ccc2c(OCc3ccc(F)cc3)c3c(nc12)-c1cccn1C3=O [Compound 482b] ; human hepatic stellate cells LX-2; reported IC50 was 0.05 to 5 mM

Short answer on human hepatic stellate cells LX-2 for O=C1c2c(n(Cc3ccc(F)c(Cl)c3)c3ccccc3c2=O)-c2cccn21 [Compound 603a] , IC50: 0.05 to 5 mM

IC50 for human hepatic stellate cells LX-2 with input CCOc1c2c(nc3cc(N4CCNCC4)c(F)cc13)-c1cccn1C2=O [Compound 329b] equals 0.05 to 5 mM

====

Tested on: BHK-21 cells
METHOD_NOTES: Anti-fibrosis activity test: inhibition of BHK-21 cell proliferation (CCK-8)
Assay type: cell-based
COND: Mesocricetus auratus, BHK-21, 48 h, CCK-8, 48 hours after administration
Hi there, I'd appreciate the recorded IC50 for every entry that follows.

Quick note, IC50 for C#CCn1c2c(c(=O)c3ccccc31)C(=O)n1cccc1-2 [Compound 7a] landed at < 0.05 mM

Reported IC50 of O=C1c2c(n(C(=O)c3ccco3)c3ccc(F)cc3c2=O)-c2cccn21 [Compound 150a] : 0.05 to 5 mM

IC50 reported for this molecule O=C1c2c(n(Cc3ccc(F)cc3)c3ccccc3c2=O)-c2cccn21 [Compound 588a] : 0.05 to 5 mM

Form: molecule = O=C1c2c(nc3cccc(Cl)c3c2O)-c2cccn21 [Compound 464b] ; IC50 = 0.05 to 5 mM

Value of IC50 reported for the molecule CC(C)=CCn1c2c(c(=O)c3ccccc31)C(=O)n1cccc1-2 [Compound 9a] is 20 to 100 mM

Memo: O=C1c2c(n(CCCCN3CCOCC3)c3ccccc3c2=O)-c2cccn21 [Compound 664a] , reported IC50: 0.05 to 5 mM

Entry COc1ccc2c(O)c3c(nc2c1)-c1cccn1C3=O [Compound 560b] ; IC50 = 0.05 to 5 mM

Data point: O=C(O)COc1c2c(nc3ccc(C(F)(F)F)cc13)-c1cccn1C2=O [Compound 279b] ; IC50 = 0.05 to 5 mM

Record summary for O=C1c2c(nc3cc(Cl)ccc3c2OCc2ccccc2Cl)-c2cccn21 [Compound 510b] : reported IC50 = 0.05 to 5 mM

====

System: human hepatic stellate cells LX-2
METHOD_NOTES: Anti-fibrosis activity test: inhibition of proliferation of human hepatic stellate cells LX-2 (CCK-8)
Format: cell-based
COND: human hepatic stellate cells LX-2, CCK-8, 48 hours
MEASURED_METRIC: IC50

Entry O=C(Cn1c2c(c(=O)c3ccccc31)C(=O)n1cccc1-2)c1ccc(C(F)(F)F)cc1 [Compound 91a] , IC50 reported as 0.05 to 5 mM

Data provenance is patent US11040028B2.
